Cited source for all entries: patent US12030896B2

- assay-explanation: Pharmacokinetic study of Example 3 in mouse (IV, IP)
- Type: in vivo, C57 Mouse
- condition-notes: C57, mouse, plasma, iv, 5 mg/kg, 5 mg/kg IV; individual animals 101M-103M; read-out: HL_Lambda_z (T1/2, h) (converted)

structure: Cc1ccc(Nc2nc(N/N=C/c3c[nH]c4ccccc34)cc(N3CCOCC3)n2)cc1
unit-info: h
half-life: 0.85

----------
- assay-explanation: Pharmacokinetic study of Example 3 in mouse (IV, IP)
- Type: in vivo, C57 Mouse
- condition-notes: C57, mouse, plasma, ip, 30 mg/kg, 30 mg/kg IP; mean; read-out: AUCINF_pred

molecule: Cc1ccc(Nc2nc(N/N=C/c3c[nH]c4ccccc34)cc(N3CCOCC3)n2)cc1 [Example 3]
AUC(0-inf), ng·h/mL: 26600

----------
- assay-explanation: Pharmacokinetic study of Example 1 in mouse (IV, IP, PO)
- Assay type: in vivo, Male C57BL/6 Mouse
- condition-notes: male, C57BL/6, mouse, plasma, ip, 30 mg/kg, IP 30 mg/kg; mean; read-out: MRT0-inf

molecule: Cc1ccc(Nc2nc(N/N=C/c3c[nH]c4ccccc34)nc(N3CCOCC3)n2)cc1 [Example 1]
unit-info: h
MRT inf: 12

----------
- assay-explanation: Pharmacokinetic study of Example 1 in mouse (IV, IP, PO)
- Type: in vivo, Male C57BL/6 Mouse
- condition-notes: male, C57BL/6, mouse, plasma, iv, 5 mg/kg, IV 5 mg/kg; individual mice M1-M3; read-out: C0

structure: Cc1ccc(Nc2nc(N/N=C/c3c[nH]c4ccccc34)nc(N3CCOCC3)n2)cc1
unit-info: ng/mL
C0: 1390

----------
- assay-explanation: Pharmacokinetic study of Example 1 in mouse (IV, IP, PO)
- Type: in vivo, Male C57BL/6 Mouse
- condition-notes: male, C57BL/6, mouse, plasma, ip, 30 mg/kg, IP 30 mg/kg; 4.00 h; individual mice M4-M6
readout-type: concentration at 4 h (µg/mL)

structure: Cc1ccc(Nc2nc(N/N=C/c3c[nH]c4ccccc34)nc(N3CCOCC3)n2)cc1
readout-type: concentration at 4 h
readout-number: 0.136

----------
- assay-explanation: Pharmacokinetic study of Example 3 in mouse (IV, IP)
- Format: in vivo, C57 Mouse
- condition-notes: C57, mouse, plasma, ip, 30 mg/kg, 30 mg/kg IP; mean

molecule: Cc1ccc(Nc2nc(N/N=C/c3c[nH]c4ccccc34)cc(N3CCOCC3)n2)cc1 [Example 3]
bioavailability [%]: 92.7

----------
- assay-explanation: Pharmacokinetic study of Example 3 in mouse (IV, IP)
- Assay type: in vivo, C57 Mouse
- condition-notes: C57, mouse, plasma, ip, 30 mg/kg, 30 mg/kg IP; individual animals 201M-203M; read-out: AUCINF_pred
readout-type: AUC(0-inf)

structure: Cc1ccc(Nc2nc(N/N=C/c3c[nH]c4ccccc34)cc(N3CCOCC3)n2)cc1
result: 22700 ng·h/mL

----------
- assay-explanation: Pharmacokinetic study of Example 1 in mouse (IV, IP, PO)
- Format: in vivo, Male C57BL/6 Mouse
- condition-notes: male, C57BL/6, mouse, plasma, po, 30 mg/kg, PO 30 mg/kg; mean; read-out: MRT0-inf
readout-type: MRT inf

compound: Cc1ccc(Nc2nc(N/N=C/c3c[nH]c4ccccc34)nc(N3CCOCC3)n2)cc1 [Example 1]
readout-type: MRT inf
result: 2.4 h
